test system: SK-MEL-28 melanoma; assay: NCI tumour cell line growth inhibition, 48 h
measurement.label: TGI

Cc1ccccc1NC(=O)Cc1csc2[n+]1C(=O)/C(=C/c1ccc([N+](=O)[O-])cc1)S2; > 100 µM
COc1cc(-c2nn(-c3cccc(NC(=O)c4ccc(Cl)c(C(F)(F)F)c4)c3)cc2-c2ccncc2)ccc1Cl; > 32.5 µM
CC[C@H](C)[C@H](NC(=O)CN(C)C)C(=O)N(C)[C@H](C[C@@H](OC(C)=O)c1nc(C(=O)NC23CC(C(=O)OC)(C2)C3)cs1)C(C)C; > 25 µM
O=C1Nc2ccccc2Nc2ccncc21; > 100 µM
CCc1nc(N)nc(N)c1-c1ccc(N2CCNCC2)cc1; > 100 µM
O=P(O)(O)C1(P(=O)(O)O)CC1; > 100 µM
CCOC(=O)c1cnc2c(C)cccc2c1Nc1ccc(C(C)=O)cc1; > 100 µM
CC(C)(C)N(Cc1ccc2c(c1)OCO2)C(=O)/C=C\Sc1ccccc1; > 100 µM
Cc1ccc(S(=O)(=O)NC(CN)C(=O)O)cc1 (configuration not stated); > 100 µM
CC1=NC(=Cc2ccc([N+](=O)[O-])cc2)C(=O)N1n1c(-c2ccccc2)nc2ccccc2c1=O; > 100 µM
CC1(C)C(=O)C(C)(C)C1=S; > 100 µM
COC(=O)[C@H]1CCCN1C(=O)[C@H]1CCCN1C(=O)[C@H](Cc1c[nH]c2ccccc12)NC(=S)Nc1cc(C(F)(F)F)cc(C(F)(F)F)c1; > 100 µM

* * *

test system: HT29 colon; test: NCI tumour cell line growth inhibition, 48 h; in the data active = GI50 below about 0.43 µM; inactive = the rest
Classes used: y (active), n (inactive)

O=C(CC(Cl)=C(Cl)Cl)c1cccc(Cl)c1Cl; n
COC(=O)[C@H]1CCCN1C(=O)[C@H]1CCCN1C(=O)[C@H](Cc1c[nH]c2ccccc12)NC(=S)Nc1cc(C(F)(F)F)cc(C(F)(F)F)c1; n
O=C(COc1cccc(/C=C2\CSc3ccccc3C2=O)c1)Nc1nccs1; n
CCCCCCCCCCCCCC[C@@H](O)[C@H]1CC[C@H]([C@H]2CC[C@H]([C@H](O)CCCCCC[C@@H](O)CC3=C[C@H](C)OC3=O)O2)O1; n
O=[N+]([O-])c1cccc(C2CC(c3ccccc3)=Nc3ccccc3S2)c1 (stereo not given); n
CCC(=O)c1c(C(F)(F)F)n([O-])c2cc(F)c(F)cc2[n+]1=O; y
COc1nnc2ccc(N3CCC(c4ccc(OCCN5CCN(C)C(=O)[C@H]5C)cc4)CC3)nn12; y
O=C(Nc1nc2ccccc2s1)Nc1ccc([N+](=O)[O-])cc1Cl; n
COc1cc2c(=O)[nH]c3cc([N+](=O)[O-])ccc3c2cc1[N+](=O)[O-]; n
CC[C@H](C)[C@H](NC(=O)CN(C)C)C(=O)N(C)[C@H](C[C@@H](OC(C)=O)c1nc(C(=O)NC23CC(C(=O)OC)(C2)C3)cs1)C(C)C; y

* * *

test system: SK-OV-3 ovarian; test: NCI tumour cell line growth inhibition, 48 h
measurement.label: TGI

CCc1nc(N)nc(N)c1-c1ccc(N2CCNCC2)cc1; > 100 µM
Cc1cc(N2CCN(C)CC2)n2nc(-c3ccc(Cl)cc3)nc2n1; > 100 µM
CC(=O)Oc1ccc(/C=C/C(=O)O[C@@H](C(=O)O)[C@@H](OC(=O)/C=C/c2ccc(OC(C)=O)c(OC(C)=O)c2)C(=O)O)cc1OC(C)=O; > 100 µM
CC1(C)C(=O)C(C)(C)C1=S; > 100 µM
CN1CSC(=S)N(Cc2ccccc2)C1; > 100 µM
O=C(CCc1ccccc1)ON1C(=S)C(c2ccccc2)(c2ccccc2)N=C1Sc1ccccc1; > 100 µM
O=C1Cc2cc(C(=O)NC3C[C@H]4CC[C@@H](C3)N4S(=O)(=O)CC3CCN(CCCC(F)(F)F)CC3)c(Cl)cc2N1 (stereo partly drawn); > 100 µM
COc1ccc(/C=C/C(=O)c2sc(-n3nc(-c4ccccc4)cc3-c3ccccc3)nc2C)cc1; > 100 µM
COc1ccc2oc(=O)c(-c3csc(C)n3)cc2c1; 87.3 µM
C#CCOc1ccc2ncnc(Nc3ccc(NC(=O)C=C)cc3)c2c1; > 100 µM
CN1CCN(CCCOc2cccc3nc(Nc4ccc(Cl)c(C(F)(F)F)c4)ccc23)CC1; 4.35 µM
Nc1c(Cl)ncnc1NCCCNc1ncnc(Cl)c1N; > 100 µM
O=C(CN1C(=O)S/C(=C\C(Cl)=C\c2ccccc2)C1=O)NC1C=CS(=O)(=O)C1 (stereo not drawn); 32.6 µM

* * *

system: UACC-257 melanoma; test: NCI tumour cell line growth inhibition, 48 h
measurement.label: TGI

CN(c1ccccc1)c1c(Cl)c(=O)oc2c1ccc1occc12; > 100 µM
COc1cc2c3c(n(C)c(=O)c2cc1OC)-c1ccc(C#N)cc1C3=O; > 100 µM
COc1cc(C2c3cc4c(cc3OC(N3CCNCC3)C2C)OCO4)cc(OC)c1OC (stereo unspecified); > 47.9 µM
CCOc1ccc(NC(=O)CC2C(=O)Nc3ccccc3S2(=O)=O)cc1 (stereo unspecified); > 100 µM
Cc1cc(=O)[nH]c(NN2C(Cl)C(=O)C2c2cccc(Cl)c2)n1 (stereo unspecified); > 100 µM
CN(C)C(=S)SCC(=O)Nc1ccccc1; > 100 µM

* * *

# GI50 annotations
test system: NCI-H226 lung; experiment: NCI tumour cell line growth inhibition, 48 h
measurement.label: GI50

CN1CSC(=S)N(Cc2ccccc2)C1; 70500 nM
CCCCCCCCCCCCCC[C@@H](O)[C@H]1CC[C@H]([C@H]2CC[C@H]([C@H](O)CCCCCC[C@@H](O)CC3=C[C@H](C)OC3=O)O2)O1; 1710 nM
COc1cc2nc3cc([N+](=O)[O-])ccc3c(NCCNCC(C)(C)O)c2cc1OC; 1280 nM
CSc1ccc2c(c1)C(N1CCN(C)CC1)Cc1ccccc1S2 (centres undefined); 1800 nM

* * *

test system: OVCAR-3 ovarian; assay: NCI tumour cell line growth inhibition, 48 h
measurement.label: TGI

COc1cc(N(Cc2ccc3oc(=O)c(-c4ccccc4)nc3c2)Cc2ccc3oc(=O)c(-c4ccccc4)nc3c2)cc(OC)c1OC; > 10 µM
CCOC(=O)COc1ccc2c(C)cc(=O)oc2c1; > 100 µM
COC(=O)c1ccc(Nc2nc3nc[nH]c3c(=O)[nH]2)cc1; > 100 µM

* * *

# log10(TGI) annotations
system: BT-549 breast; test: NCI tumour cell line growth inhibition, 48 h
measurement.label: log10(TGI) (log10 of the value in µM)

CCN1CCN(C(=O)[C@]23CCC(C)(C)C[C@@H]2C2=CC[C@@H]4[C@@]5(C)C/C(=C/c6ccncc6)C(=O)C(C)(C)[C@@H]5CC[C@@]4(C)[C@]2(C)CC3)CC1; 0.48
CSC(=Nc1ccccc1)/N=C(\SCc1ccccc1)N(C)C; 0.46
COC(=O)[C@H]1CCCN1C(=O)[C@H]1CCCN1C(=O)[C@H](Cc1c[nH]c2ccccc12)NC(=S)Nc1cc(C(F)(F)F)cc(C(F)(F)F)c1; 1.66
COc1cc2cc(Oc3ccc(NC(=O)Nc4ccc(Cl)c(Cl)c4)cc3)c(C)nc2cc1OC; 1.07
COc1cc(-c2ccccc2N)c2cccnc2c1OC; 1.35
CCCCCCCCCCCC[n+]1ccc2ccccc2c1; 0.40
C/C1=C\C=C(\C(C)C)CC/C(C(=O)O)=C\CC/C(C)=C/CC1; 1.90
O=C1NC(=NCCCc2ccccc2)S/C1=C\c1ccc2ncccc2c1; 1.02
CN(CCCNC(=O)CCOCCOCCOCCNC(=O)Cc1ccc2ccc3cccc4ccc1c2c34)CCCNc1cc(-c2ccc3ccccc3c2)nc2ccccc12; 0.67
c1ccc2c3c([nH]c2c1)C(c1ccc(C2NCCc4c2[nH]c2ccccc42)cc1)NCC3 (configuration not stated); 1.39
O=C1/C=C/[C@@H](O)[C@@H]2C[C@@H](O)C[C@H]2/C=C/CCC[C@H](C(F)(F)F)O1; 1.03
CC(=O)[O][Hg][c]1c(C)c(C)cc(C)c1C; 0.58

* * *

tested on: SN12C renal; experiment: NCI tumour cell line growth inhibition, 48 h; in the data active = GI50 below about 0.43 µM; inactive = the rest
Classes used: y = active, n = inactive

O=[N+]([O-])c1cccc(C2CC(c3ccccc3)=Nc3ccccc3S2)c1 (centres undefined); n
CN1CSC(=S)N(Cc2ccccc2)C1; n
O=C(COc1cccc(/C=C2\CSc3ccccc3C2=O)c1)Nc1nccs1; n
NC(=S)c1c(N)n(C2OC(CO)C(O)C2O)c2ncnc(N)c12 (centres undefined); y

* * *

system: NCI-H226 lung; test: NCI tumour cell line growth inhibition, 48 h
measurement.label: TGI

CC(=O)NNc1nc(C)c(C(=O)NNC(=O)C(=O)Nc2ccc(Cl)cc2Cl)s1; > 100 µM
CN(C)CCNC(=O)c1cccc2c1Oc1c(cccc1[N+](=O)[O-])O2; 0.92 µM
c1ccc2c3c([nH]c2c1)C(c1ccc(C2NCCc4c2[nH]c2ccccc42)cc1)NCC3 (stereo not drawn); 4.23 µM
CC1CC(=O)N(N(C)C)C(C#N)(C#N)C1(C#N)C#N (stereo not drawn); 67 µM
COc1cc(-c2ccccc2N)c2cccnc2c1OC; 26.6 µM
Nc1ncnc2c1ncn2C1CC(OCc2ccccc2[N+](=O)[O-])C(CO)O1 (stereo not drawn); 36.3 µM
O=P(O)(O)C1(P(=O)(O)O)CC1; > 100 µM
C[C@]12CCC3[C@@H](CC[C@@H]4c5nonc5CC[C@]34C)C1CC[C@@H]2O (stereo partly drawn); > 100 µM
CN(C)/N=C1\CC(c2ccccc2)C(C#N)(C#N)C1(C#N)C#N (stereo not drawn); 84.7 µM
COc1ccc(/C=C/C(=O)c2sc(-n3nc(-c4ccccc4)cc3-c3ccccc3)nc2C)cc1; > 100 µM
O=C(NNc1ccccc1)/C(=C/c1ccc2c(c1)OCO2)NC(=O)c1ccccc1; > 100 µM
CSC1NC(c2ccc(Cl)cc2)=C(C#N)C(=O)N1C1OCC(OC(C)=O)C(OC(C)=O)C1OC(C)=O (stereo not drawn); > 100 µM
Cn1c(-c2c(N)n(CCCN3CCOCC3)c3nc(C#N)c(C#N)nc23)nc2ccccc21; > 52.9 µM
O=C1Nc2ccccc2/C1=c1\[nH]c(=O)/c(=C\c2ccc(OCc3ccccc3)cn2)[nH]c1=O; > 100 µM
COC(=O)[C@H]1CCCN1C(=O)[C@H]1CCCN1C(=O)[C@H](Cc1c[nH]c2ccccc12)NC(=S)Nc1cc(C(F)(F)F)cc(C(F)(F)F)c1; > 100 µM
N#CC1c2ccccc2C=CN1C(=O)N(c1ccccc1)c1ccccc1 (stereo not drawn); 15.2 µM
COc1cc(CCc2ccc(N)cc2)cc(OC)c1OC; > 100 µM
CC(SC(=O)Nc1ccc(N=Nc2ccccc2)cc1)C(=O)O (stereo not drawn); > 100 µM
